- assay_method_text: The compound was tested for the inhibitory activity of FK506 binding protein
- Parameters: species or system Homo sapiens
endpoint_name: IC50 (µM)

Some compounds with recorded IC50:
| compound | IC50 (µM) |
| --- | --- |
| COc1cccc(C(=O)CN2CCCC[C@H]2C(=O)N[C@H](C(=O)OC(C)(C)C)c2cccs2)c1 | 23 |
| CCC(C)[C@H](NC(=O)[C@@H]1CCCCN1CC(=O)c1cccc(OC)c1)C(=O)OC(C)(C)C (some centres not stated) | 8 |
| COc1cccc(C(=O)CN2CCCC[C@H]2C(=O)N[C@@H](Cc2ccccc2)C(=O)N[C@H](C(=O)N[C@@H](Cc2ccccc2)C(=O)N[C@H](C)c2cccc3ccccc23)C(C)C)c1 | 30 |

I: COc1cccc(C(=O)CN2CCCC[C@H]2C(=O)N[C@@H](Cc2ccccc2)C(=O)N[C@H](/C=C/COC(C)=O)C(C)C)c1
II: COc1cccc(C(=O)CN2CCCC[C@H]2C(=O)N[C@@H](Cc2ccccc2)C(=O)N[C@H](C(=O)N[C@@H](Cc2ccccc2)C(=O)O[C@H](C)c2ccccc2)C(C)C)c1
III: C[C@@H](/C=C/c1ccc(C(=O)C(=O)N2CCCC2C(=O)NC(Cc2ccccc2)C(=O)OC(C)(C)C)s1)CO (some centres not stated)
Rank entries according to their IC50, from the largest number down. Provide your answer as the labels ordered per the instruction.
III, II, I
(III: 120 µM, II: 23 µM, I: 2 µM)

P: COC(=O)[C@H](Cc1ccccc1)NC(=O)[C@@H](NC(=O)[C@H](Cc1ccccc1)NC(=O)[C@@H]1CCCCN1CC(=O)c1ccc(-c2ccccc2)cc1)C(C)C
Q: COc1cccc(C(=O)CN2CCCC[C@H]2C(=O)N[C@@H](Cc2ccccc2)C(=O)N[C@H](/C=C/I)C(C)C)c1
Just curious, which one has the larger IC50 reading, P or Q ? Bench note: the answer is the label of the chosen record.
P
(P: 26 µM, Q: 2 µM)
